These measurements were taken from a melting point compilation (Tetko et al.; mined from patent text by program, amines drawn as free bases though some values may be those of a salt).

attribute.measured: melting point

Would you please look over these solved cases?
molecule	data.value
CC(=NC(=Nc1ccccc1)N1CCOCC1)NCCO	132 to 134 °C
CCCc1cc2c(NC(=S)N3Cc4ccccc4CC3CCO)cccc2cn1 (racemic)	175 °C
COc1nc2cc(C)c(C)cc2nc1C(=O)O	180 to 182 °C

Query: Look at this molecule and give its reported melting point. "CCCCc1ccc(C(=O)Cc2ccc(Br)cc2)cc1"
Result: 129 to 131 °C

Query: Which value of melting point has been reported for "CCSc1c(N)cnc2cc(Cl)ccc12" in the records?
Result: 105 to 106 °C

Query: Fill in: melting point of "O=S1(=O)NCc2cccc(Cl)c21" is ___
Result: 159 to 161 °C

Query: Find the recorded melting point belonging to COC(=O)c1cncn1C1c2ccccc2C(F)(F)C1(C)C (stereo not drawn) and report it.
Result: 96 to 97 °C

Query: Recorded melting point for "CCCCCCOc1c2c(c(-c3ccc4c(c3)OCO4)c3c4c(ccc13)OCO4)C(=O)NC2=O" , please?
Result: 222 to 223 °C

---

attribute.measured: melting point

compound	data.value
CNC(=O)N1CC(Oc2cc(C(F)(F)F)ccc2F)C1	93.5 to 95 °C
Nc1nc(N)c(-c2ccc(Cl)cc2Cl)c(C(F)(F)F)n1	220 to 221 °C
Clc1ccc(Nc2nnc(Cc3ccncc3)c3cccnc23)cc1	196 to 197 °C
O=c1c2ccccc2sc2c(O)ccc(Cl)c12	260 to 265 °C
CCCCCC(CCC(=O)c1ccc(OCC)cc1)C(=O)O (stereo unspecified)	61 °C
NS(=O)(=O)c1ccccc1C(=O)OC1COC1	169 to 170 °C
COC(=O)c1cncn1C1c2ccccc2C(=O)C1(C)C (stereo unspecified)	104 to 108 °C
CC(C)Nc1ccc(-c2ncc(C(F)(F)F)cc2Cl)cc1[N+](=O)[O-]	107 to 109 °C

Query: Return reported melting point; argument: "CN(O)C(=O)C=Cc1ccc(Cl)c(O)c1"
Result: 196 °C

Query: Reported melting point for "Cc1ccc([C@H](CC(=O)O)NC(=O)Nc2c(O)c3ccccc3n(Cc3ccccc3Cl)c2=O)cc1" : what is it?
Result: 134 to 136 °C

Query: Suppose we examine the compound "COc1cc(C)c(C(=O)c2c(Cl)cnc(Cl)c2C(F)(F)F)c(OC)c1OC" ; what melting point value has been reported?
Result: 106 to 109 °C

Query: Given O=C(OC1CCCCC1=O)c1ccc([N+](=O)[O-])cc1 (stereo unspecified) , state its recorded melting point.
Result: 124 to 125 °C

Query: Any idea what melting point was measured for "NCc1ccc(-c2nc(-c3ccccc3)c(-c3ccncc3)[nH]2)cc1" ?
Result: 214 to 215 °C

Query: So what's the measured melting point for this one? "CCOC(=O)NNC(=O)NCCCCl"
Result: 105 to 106 °C

Query: For the compound shown here, O[C@]1(c2ccccc2)CCS[C@H]2CN(Cc3ccccc3)C[C@H]21 (racemic) , give the reported melting point.
Result: 137 °C

---

attribute.measured: melting point

Guide cases for melting point, answers given:
compound	attribute.measured	data.value
Cc1nc2c3c(c(C(=O)NC4CC4)cc2n1C)CCC(c1ccccc1)O3 (stereo not given)	melting point	312 to 313 °C
COCCN(CCOC)Cc1ccc(NC(=O)C2=Cc3cc(-c4ccc(C)cc4)ccc3OCC2)cc1	melting point	110 to 112 °C
CCCCCCC(C)(C)c1cc(OCc2ccccc2)c2c(c1)OC(C)(C)CC2=O	melting point	52 to 52.5 °C

Query: Report melting point for "CCOC(=O)CCn1c(-c2ccc(F)cc2)cc2ccccc2c1=O" please.
Result: 125 to 126 °C

Query: Entry "CC(C)(C)n1cc(-c2ccc(I)cc2)c(C#N)c1N" : reported melting point = ?
Result: 166 to 167 °C

Query: Can you share its melting point? I mean this compound: "CC(=O)CNC(=O)Cc1ccccc1"
Result: 126 °C

Query: Item "c1ccc2c(C3CCNCC3)n[nH]c2c1" has what recorded melting point?
Result: 213 to 215 °C

Query: Entry CSC(C)(C(=O)O)c1ccc(CC(C)C)cc1 (stereo not given) has what melting point?
Result: 89 to 92 °C

Query: Consider the compound shown here: "O=C(CCCN1CCCCC1)c1ccc2c(c1)C(=O)c1cc(C(=O)CCCN3CCCCC3)ccc1-2" What is its recorded melting point?
Result: 168 to 170 °C

Query: # lookup: melting point of CC(C)(C)OC(=O)NCC(O)(CNCC(O)C(Cc1ccccc1)NC(=O)OC(C)(C)C)Cc1ccccc1 (stereo not given)
Result: 65 to 67 °C

Query: Which value of melting point has been reported for "O=c1n(-c2ccccc2)nc2c3c(nc(Cl)n12)CCCC3" in the records?
Result: 205 to 207 °C
